# measured_target: T1, EsCas13d, nuclease-dead (Eubacterium siraeum, UniProt B0MS50, R295A;H300A;R849A;H854A)
# T1 sequence: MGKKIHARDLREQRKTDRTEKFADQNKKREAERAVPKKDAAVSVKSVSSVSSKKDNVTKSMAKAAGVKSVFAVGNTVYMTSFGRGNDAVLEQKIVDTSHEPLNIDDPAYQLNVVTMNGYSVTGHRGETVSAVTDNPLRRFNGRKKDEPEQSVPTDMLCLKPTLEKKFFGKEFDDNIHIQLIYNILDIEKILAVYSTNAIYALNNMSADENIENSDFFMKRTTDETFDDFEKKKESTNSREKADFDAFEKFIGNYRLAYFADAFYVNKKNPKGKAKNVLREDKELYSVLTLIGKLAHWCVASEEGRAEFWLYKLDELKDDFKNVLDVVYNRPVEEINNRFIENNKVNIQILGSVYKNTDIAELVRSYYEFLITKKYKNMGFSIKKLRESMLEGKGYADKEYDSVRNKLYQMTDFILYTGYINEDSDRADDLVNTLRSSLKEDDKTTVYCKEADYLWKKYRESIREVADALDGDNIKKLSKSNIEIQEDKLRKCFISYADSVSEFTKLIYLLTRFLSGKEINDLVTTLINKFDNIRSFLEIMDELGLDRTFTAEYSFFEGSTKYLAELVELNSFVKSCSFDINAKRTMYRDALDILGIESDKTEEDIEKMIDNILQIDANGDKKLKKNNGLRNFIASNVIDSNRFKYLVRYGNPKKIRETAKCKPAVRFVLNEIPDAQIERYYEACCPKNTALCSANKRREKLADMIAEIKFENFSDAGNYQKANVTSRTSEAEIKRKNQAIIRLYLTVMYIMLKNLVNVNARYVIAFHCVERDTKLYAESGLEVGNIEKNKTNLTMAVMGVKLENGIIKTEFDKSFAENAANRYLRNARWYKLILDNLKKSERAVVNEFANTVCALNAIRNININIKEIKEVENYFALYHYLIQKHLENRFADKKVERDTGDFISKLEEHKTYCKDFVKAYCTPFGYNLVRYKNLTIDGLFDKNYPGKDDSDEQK
# assay_name: crRNA (strand 1, pre-loaded); Mg2+; 40 mM Tris-HCl pH 7.5, 150 mM NaCl, 6 mM MgCl2, 1 mM DTT, 0.1% Tween-20, 0.2 mg/ml BSA; 25 C; 10 min per concentration, then washed
# condition_label: tags: His6-TwinStrep-SUMO cleaved; N-terminal SNAP kept (SNAP-Surface 488); label: 3' end held by stalled T7 RNA polymerase
Property: Kd; scope: individual binders
measured_attribute: Kd (nM)

1) target 1 MT 5'PFS GUC 3'PFS UAA (mixed) RNA 1: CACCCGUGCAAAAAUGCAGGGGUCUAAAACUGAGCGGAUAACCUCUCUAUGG RNA 2: GGGAAUGGAUCCACAUCUACGAAUUCGUCCCAUAGAGAGGUUAUCCGCUCAUAAAGAUCGGAAGAGCACACGU	16
2) target 3 G3C,U8G (mixed) RNA 1: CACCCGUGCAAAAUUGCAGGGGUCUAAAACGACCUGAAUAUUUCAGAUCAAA RNA 2: GGGAAUGGAUCCACAUCUACGAAUUCGUUUUUGAUCUGAAAUAGUCAGCUCUGCAGAUCGGAAGAGCACACGU	88
3) target 1 del1 (mixed) RNA 1: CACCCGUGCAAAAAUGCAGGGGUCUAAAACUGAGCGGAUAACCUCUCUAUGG RNA 2: GGGAAUGGAUCCACAUCUACGAAUUCGUACCAUAGAGAGGUUAUCCGCUCCCGAGAUCGGAAGAGCACACGU	39
4) target 1 insU 3' of 22,insG 3' of 20 (mixed) RNA 1: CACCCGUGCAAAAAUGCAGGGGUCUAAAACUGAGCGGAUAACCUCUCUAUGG RNA 2: GGGAAUGGAUCCACAUCUACGAAUUCGUACUCAGUAGAGAGGUUAUCCGCUCACCGAGAUCGGAAGAGCACACGU	78
5) target 1 insA 3' of 19,insU 3' of 13 (mixed) RNA 1: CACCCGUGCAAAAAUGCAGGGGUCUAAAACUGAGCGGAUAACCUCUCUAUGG RNA 2: GGGAAUGGAUCCACAUCUACGAAUUCGUACCAUAAGAGAGUGUUAUCCGCUCACCGAGAUCGGAAGAGCACACGU	35
6) target 1 insC 3' of 11,insA 3' of 4 (mixed) RNA 1: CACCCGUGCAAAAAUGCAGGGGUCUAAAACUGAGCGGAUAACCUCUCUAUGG RNA 2: GGGAAUGGAUCCACAUCUACGAAUUCGUACCAUAGAGAGGUCUAUCCGCAUCACCGAGAUCGGAAGAGCACACGU	21.1
7) target 3 insU 3' of 16,insU 3' of 3 (mixed) RNA 1: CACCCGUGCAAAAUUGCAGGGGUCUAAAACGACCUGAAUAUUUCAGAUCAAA RNA 2: GGGAAUGGAUCCACAUCUACGAAUUCGUUUUUGAUCUUGAAAUAUUCAGGUUCUGCAGAUCGGAAGAGCACACGU	29
8) target 1 A18U,C22U (mixed) RNA 1: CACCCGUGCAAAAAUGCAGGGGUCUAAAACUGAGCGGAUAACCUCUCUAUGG RNA 2: GGGAAUGGAUCCACAUCUACGAAUUCGUAUCAUUGAGAGGUUAUCCGCUCACCGAGAUCGGAAGAGCACACGU	74
9) target 1 insG 3' of 9,insA 3' of 4 (mixed) RNA 1: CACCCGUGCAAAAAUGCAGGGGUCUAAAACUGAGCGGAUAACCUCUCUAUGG RNA 2: GGGAAUGGAUCCACAUCUACGAAUUCGUACCAUAGAGAGGUUAGUCCGCAUCACCGAGAUCGGAAGAGCACACGU	9.6
10) target 3 A5C,U22C (mixed) RNA 1: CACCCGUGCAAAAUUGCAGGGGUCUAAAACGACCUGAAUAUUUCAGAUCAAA RNA 2: GGGAAUGGAUCCACAUCUACGAAUUCGUUCUUGAUCUGAAAUAUUCCGGUCUGCAGAUCGGAAGAGCACACGU	84
11) target 1 G5A,U11A (mixed) RNA 1: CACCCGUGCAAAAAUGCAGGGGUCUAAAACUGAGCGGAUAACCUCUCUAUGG RNA 2: GGGAAUGGAUCCACAUCUACGAAUUCGUACCAUAGAGAGGAUAUCCACUCACCGAGAUCGGAAGAGCACACGU	54
12) target 2 MT 5'PFS GGU 3'PFS CGU (mixed) RNA 1: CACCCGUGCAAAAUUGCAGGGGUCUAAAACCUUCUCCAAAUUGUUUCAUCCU RNA 2: GGGAAUGGAUCCACAUCUACGAAUUCGGUAGGAUGAAACAAUUUGGAGAAGCGUAGAUCGGAAGAGCACACGU	22.3
13) target 1 insU 3' of 22,insC 3' of 22 (mixed) RNA 1: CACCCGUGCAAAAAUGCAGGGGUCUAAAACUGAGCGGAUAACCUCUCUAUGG RNA 2: GGGAAUGGAUCCACAUCUACGAAUUCGUACUCCAUAGAGAGGUUAUCCGCUCACCGAGAUCGGAAGAGCACACGU	31.6
14) target 2 MT 5'PFS CGC 3'PFS CAC (mixed) RNA 1: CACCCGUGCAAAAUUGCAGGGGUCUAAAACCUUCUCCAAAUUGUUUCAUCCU RNA 2: GGGAAUGGAUCCACAUCUACGAAUUCCGCAGGAUGAAACAAUUUGGAGAAGCACAGAUCGGAAGAGCACACGU	5.1
15) target 1 C2U,U10G (mixed) RNA 1: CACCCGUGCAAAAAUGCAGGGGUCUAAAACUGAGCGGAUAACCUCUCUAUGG RNA 2: GGGAAUGGAUCCACAUCUACGAAUUCGUACCAUAGAGAGGUGAUCCGCUUACCGAGAUCGGAAGAGCACACGU	23.6
